Biological target: T1, HLA-DR13 (DRB1*1301) (human)
T1 chain 1: not shown
T1 chain 2: not shown
Assay: competition ELISA, purified HLA II; unlabeled peptide against its own biotinylated tracer
No end group written: not given here.
assay_readout: IC50 (nM)
One number for each entry, in nM.

Exercise: Give reported IC50 value for TERVRLVTRHIYNREE (not fully specified) [B1 21-36 (nonbiotinylated)]
Solution: 330
